# OD450 listing for each entry below
- target.of.assay: T1, human CD22-ECD-His protein (human, UniProt P20273 20-687)
- T1 construct: Made in house in HEK293E; also called hCD22-ECD-His; recombinant human CD22-ECD His protein; not shown: His tag
- T1 sequence: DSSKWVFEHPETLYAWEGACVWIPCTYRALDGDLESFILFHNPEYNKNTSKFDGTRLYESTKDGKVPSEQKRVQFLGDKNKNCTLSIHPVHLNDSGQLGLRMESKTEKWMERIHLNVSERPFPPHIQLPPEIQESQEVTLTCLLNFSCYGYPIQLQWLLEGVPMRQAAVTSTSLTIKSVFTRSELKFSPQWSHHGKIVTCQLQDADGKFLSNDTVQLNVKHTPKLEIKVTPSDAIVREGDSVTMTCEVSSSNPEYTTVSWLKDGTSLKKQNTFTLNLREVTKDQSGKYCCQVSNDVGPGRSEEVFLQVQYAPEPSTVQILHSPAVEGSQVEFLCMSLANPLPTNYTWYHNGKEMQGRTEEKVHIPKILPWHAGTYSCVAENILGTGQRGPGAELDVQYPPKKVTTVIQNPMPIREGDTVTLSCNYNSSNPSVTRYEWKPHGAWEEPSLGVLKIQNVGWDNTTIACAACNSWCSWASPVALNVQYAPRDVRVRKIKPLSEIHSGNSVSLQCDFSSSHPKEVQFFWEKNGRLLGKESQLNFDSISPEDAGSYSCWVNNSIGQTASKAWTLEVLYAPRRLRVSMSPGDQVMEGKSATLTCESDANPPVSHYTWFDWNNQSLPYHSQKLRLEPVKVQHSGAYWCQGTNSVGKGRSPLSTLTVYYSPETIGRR
- experimental.protocol: ELISA, Ab 0.001 nM
Hi! Could you send only the number? It should be in OD450, unit omitted.

Some entries whose results are on file:
{"binder": "F1.60.9 (antibody, human IgG1, kappa, V domains shown, Human-murine chimeric IgG1, kappa) VH: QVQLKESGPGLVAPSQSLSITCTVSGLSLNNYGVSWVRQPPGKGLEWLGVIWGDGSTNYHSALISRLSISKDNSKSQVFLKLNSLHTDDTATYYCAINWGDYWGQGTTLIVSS VL: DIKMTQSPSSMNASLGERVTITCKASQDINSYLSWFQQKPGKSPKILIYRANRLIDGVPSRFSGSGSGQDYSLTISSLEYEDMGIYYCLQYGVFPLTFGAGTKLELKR", "OD450 / OD450": 0.47}
{"binder": "F2.121.9 (antibody, human IgG1, lambda, V domains shown, Human-murine chimeric IgG1, lambda) VH: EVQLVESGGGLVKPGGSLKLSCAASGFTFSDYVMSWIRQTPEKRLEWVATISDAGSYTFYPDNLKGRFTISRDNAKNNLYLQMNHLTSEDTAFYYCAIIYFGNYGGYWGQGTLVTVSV VL: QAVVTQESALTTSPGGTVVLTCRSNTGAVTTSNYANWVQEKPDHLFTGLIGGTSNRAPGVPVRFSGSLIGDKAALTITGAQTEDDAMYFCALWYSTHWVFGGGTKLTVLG", "OD450 / OD450": 0.69}

Could you now consider this next binder?
# OD450 lookup, item F2.55.1 (antibody, human IgG1, lambda, V domains shown, Human-murine chimeric IgG1, lambda) VH: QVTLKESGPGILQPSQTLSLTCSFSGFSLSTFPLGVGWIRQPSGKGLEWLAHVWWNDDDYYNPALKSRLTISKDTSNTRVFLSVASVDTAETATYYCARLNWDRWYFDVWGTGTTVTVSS VL: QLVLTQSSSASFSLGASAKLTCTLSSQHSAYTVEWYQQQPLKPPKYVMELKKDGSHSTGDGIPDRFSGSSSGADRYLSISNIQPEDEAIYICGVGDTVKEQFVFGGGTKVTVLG 0.44
